Test Readout: melting point

Some compounds with recorded melting point:
> print(dat)
                                   compound  reported.measurement
1  COC(=O)c1cccc2c1c1c(O)c3c(cc1n2Cc1ccccc1)CCCC3         174 to 176 °C
2  CC(NC(=O)[C@@H](N)C(C)C)c1cc2ccccc2s1 (some centres undefined)           70 to 71 °C

**Query** Which value of melting point has been reported for `CCc1c(Oc2cnc(N)nc2N)cc(C)c2sccc12` in the records?
**Result** 181 °C

**Query** Which value of melting point has been reported for Oc1ccccc1-c1ccccc1-c1cccc2[pH]c3ccccc3c12 (centres undefined) in the records?
**Result** 152 to 155 °C
